- target.entity: human P2X4 (Homo sapiens)
- Sequence (Q99571 1-388): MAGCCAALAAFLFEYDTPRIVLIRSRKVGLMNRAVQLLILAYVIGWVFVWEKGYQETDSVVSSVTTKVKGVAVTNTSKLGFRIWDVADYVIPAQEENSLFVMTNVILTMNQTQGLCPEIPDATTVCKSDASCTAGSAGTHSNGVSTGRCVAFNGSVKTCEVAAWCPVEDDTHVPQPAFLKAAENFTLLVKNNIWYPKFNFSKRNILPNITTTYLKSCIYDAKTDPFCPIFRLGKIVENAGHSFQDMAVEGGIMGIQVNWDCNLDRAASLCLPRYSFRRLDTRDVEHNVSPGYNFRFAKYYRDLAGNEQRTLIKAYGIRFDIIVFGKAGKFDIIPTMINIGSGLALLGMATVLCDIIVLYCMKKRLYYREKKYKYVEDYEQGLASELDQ
- measurement.protocol: Human P2X4 HEK Cell FLIPR Assay
- details: HEK293 cells, agonist Bz-ATP at EC80; individual values listed where some fall outside detection range
outcome.measure: pIC50
Answers are plain numbers, as −log10 of the molar value.

Worked examples follow.
chemical.structure	pIC50
NS(=O)(=O)c1cc(NC(=O)Cc2ccccc2Cl)ccc1-n1ncnc1C1CC1	6.07
COc1ccc(CC(=O)Nc2ccc(-n3cc(Cl)cn3)c(S(N)(=O)=O)c2)c(Cl)c1	6.38
NS(=O)(=O)c1cc(NC(=O)Cc2ccccc2Cl)ccc1-c1cnc(C(F)F)s1	6.97
Cc1cccc(CC(=O)Nc2ccc(-n3cc(C#N)cn3)c(S(N)(=O)=O)c2)c1	6.87
CCCNc1ncc(-c2ccc(NC(=O)Cc3ccccc3Cl)cc2S(N)(=O)=O)cn1	7.57
NS(=O)(=O)c1cc(NC(=O)Cc2ccccc2Cl)ccc1-c1cncc(N2CCCC2)c1	6.73
N#Cc1cc(NC(=O)Cc2ccccc2Cl)cc(S(N)(=O)=O)c1-n1cc(F)cn1	7.16
NS(=O)(=O)c1cc(NC(=O)Cc2ccccc2Cl)ccc1-c1ccsn1	6.56

# map each molecule to its pIC50
1. NS(=O)(=O)c1cc(NC(=O)Cc2cc(F)ccc2Cl)ccc1-n1cc(Cl)cn1
2. CC(C)c1ccccc1CC(=O)Nc1ccc(-n2cc(Cl)cn2)c(S(N)(=O)=O)c1
3. NS(=O)(=O)c1cc(NC(=O)Cc2cccc(Cl)c2Cl)ccc1-c1cnn(C(F)F)c1
4. NS(=O)(=O)c1cc(NC(=O)Cc2cc(F)cc(F)c2)ccc1-n1cc(F)cn1

Solution:
6.91
6.50
7.80
6.44

Please state, for each entry, its recorded pIC50.
1. NS(=O)(=O)c1cc(NC(=O)Cc2ccccc2Cl)ccc1-n1cnc2cnccc21
2. CC(C)Oc1ncccc1-c1ccc(NC(=O)Cc2ccccc2Cl)cc1S(N)(=O)=O
3. CC(C)(C)c1nn(-c2ccc(NC(=O)Cc3ccccc3Cl)cc2S(N)(=O)=O)cc1C#N

Solution:
1: 7.12; 2: 7.55; 3: 6.90

Each molecule below has a reported value. Please supply its pIC50.
1. NS(=O)(=O)c1cc(NC(=O)Cc2ccccc2Cl)cnc1-c1cnn(C(F)F)c1
2. Cc1ccc(CC(=O)Nc2ccc(-c3ccc(Cl)nc3)c(S(N)(=O)=O)c2)cc1
3. NS(=O)(=O)c1cc(NC(=O)Cc2ccccc2C(F)(F)F)ccc1-n1cc(Cl)cn1
4. Cc1ccc(CC(=O)Nc2ccc(-n3cc(C#N)cn3)c(S(N)(=O)=O)c2)cc1
5. NS(=O)(=O)c1cc(NC(=O)Cc2ccc(C(F)F)cc2)ccc1-c1ccc(Cl)nc1
6. NS(=O)(=O)c1cc(NC(=O)Cc2ccccc2Cl)ccc1-c1nnc(C2CC2)o1

Solution:
7.49
6.34
7.03
7.07
6.28
7.57
